Entry source: PubChem BioAssay (NCI)

Test system: U251 CNS
TEST DETAILS: NCI-60 one-dose screen, 48 h (100 = growth as untreated, 0 = no growth, -100 = all killed)
EXPERIMENTAL PARAMETERS: 10 µM unless noted
Method: Growth inhibition of the U251 human tumor cell line is measured as a screen for anti-cancer activity. Cells are grown in 96 well plates and exposed to the test compound for 48 hours. Compounds are tested at a single concentration, which is 10^-5 M for most compounds. The reported endpoint is percent growth (GI% or GIPRCNT), where numbers from 0 - 100% represent growth inhibition, and numbers from -100% - 0 represent cell death. For example, a value of 40 represents 60% growth inhibition. […]
About 83,000 compounds went through this panel and 20% of them were active in at least one assay; those are over-represented in the sample as a whole. Active and inactive are the calls of the source. The calls were made as follows: active = growth percent below 10; inactive = the rest.
MEASURED ATTRIBUTE: growth

molecule=CCOC(=O)c1c(NC(=O)CSc2n[nH]c3nc4ccccc4n23)sc(CC)c1C observed_value="97.6% (inactive)"
molecule=COC(=O)C1=Nc2ccc(F)cc2/C1=C\c1sc(Nc2ccc(O)cc2)nc1O observed_value="46.4% (inactive)"
molecule="COc1cc(C2Cc3ncccc3-c3[nH]c(=O)c4cccnc4c32)cc(OC)c1OC (stereo unspecified)" observed_value="15.8% (inactive)"

Query: Returns the measured growth for the input molecule. Input: COC(=O)/C(CCC=C(C)C)=C1\[C@@H](OC(C)=O)C[C@@]2(C)[C@H]1CC(=O)[C@H]1[C@@]3(C)CCC(N4CCCC4)[C@@H](C)[C@@H]3CC[C@@]12C (stereo partly specified)
Reply: 101% (inactive)

Query: Returns the measured growth for the input molecule. Input: `O=[N+]([O-])/C(=C\c1ccco1)c1ccccc1Cl`
Reply: 72.6% (inactive)

Query: Returns the measured growth for the input molecule. Input: `CCNc1nc(-c2ccc(F)cc2)c(C#N)c(=O)n1C`
Reply: 65.2% (inactive)

Query: Returns the measured growth for the input molecule. Input: `COc1ccc2nc3ccccc3c(NCc3ccc(F)cc3)c2c1`
Reply: 22.1% (inactive)

Query: Returns the measured growth for the input molecule. Input: `C=C1C(=O)O[C@H]2[C@H]1CC/C(COC(=O)NCc1ccc(Cn3c(=O)sn(-c4ccc(OC)cc4)c3=O)cc1)=C\CC[C@@]1(C)O[C@@H]21`
Reply: 77.7% (inactive)

Query: Returns the measured growth for the input molecule. Input: `Cc1cc(C)c(-c2c(O)c(Br)c(-c3c(C)cc(C)c(Br)c3C)c(O)c2Br)c(C)c1Br`
Reply: 19.8% (inactive)

Query: Returns the measured growth for the input molecule. Input: CC1CN=C(c2cccc(-c3ccc(-c4ccccc4)o3)c2)N1 (stereo unspecified)
Reply: -24.3% (active)

Query: Returns the measured growth for the input molecule. Input: `CC[C@H](CC[C@@H](C)[C@H]1CC[C@H]2[C@@H]3CC[C@@H]4CC(=O)/C(=C\c5ccncc5)C[C@]4(C)[C@H]3CC[C@]12C)C(C)C`
Reply: 96.3% (inactive)
